B1: glmS ribozyme (parent)
chain: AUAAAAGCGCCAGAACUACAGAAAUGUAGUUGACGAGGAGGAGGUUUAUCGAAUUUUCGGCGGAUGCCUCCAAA

Variants of: B1
protocol.details: self-cleavage kobs at 640 uM GlcN6P; higher = faster cleavage; RNA array
settings: with glucosamine-6-phosphate
This sample holds only a part of the variants without activity.
measured.property: self-cleavage kobs at 640 uM GlcN6P

[Q] Need self-cleavage kobs at 640 uM GlcN6P of AUAAAAGCGCCAGUUCUACAGAAAUGUAGUUGACGAGGAGGAGGUUUAUCGAAUUUUCGGCGGAUGCUUCCAAA [A14U A15U C68U] , thanks.
[A] 8.97e-05 s⁻¹

[Q] Next record, please: AUAAAAGCGCCGGAACUACAGAAAUGUAGUUGACGAUGAGGAGGUUUGUCGAAUUUUCGGCGGAUGCCUCCAAA [A12G G37U A48G]
[A] < 1e-05 s⁻¹

[Q] Next record, please: AUAAAAGCGCCAGAACUACAGAAAUGUAGUUGACGAGGAGGAGGUUUACAGAAUUUUCGGCGGAUGCCUACAAA [U49C C50A C70A]
[A] 7.42e-05 s⁻¹

[Q] Next record, please: AUAAAAGCGCCACAACUACAGAAAUGUAUUUGACGAGGAGGAGGUUUAUCGAAUUUUCGGCGGAUGCCUCGAAA [G13C G29U C71G]
[A] < 1e-05 s⁻¹

[Q] Next record, please: AUAAAGGCGCCAGAACUACAGAAAUGUAGUUGCCGAGGAGGAGGUUUAUCGAAUUUUCGGCGGAUGCCUCCAAA [A6G A33C]
[A] < 1e-05 s⁻¹

[Q] Next record, please: AUAAAAGCGCCAGAACUACAGAAAUGUAGUUGACGAGGAGAAGGUUUAUCGAAUUUUCGGCGGAUGCCUGCAAA [G41A C70G]
[A] 0.000156 s⁻¹

[Q] Next record, please: AUAAAAGCGCCCGAACUACAGAAAUGUAGUUGACGAGGAGGAGGUCUAUCGAAUUUUCGGCGGAUGGCUCCAAA [A12C U46C C67G]
[A] 6.73e-05 s⁻¹

[Q] Next record, please: AUAAAAGCGCCAAAACUACAGAAAUGUAGUUGACGAGGAAGAGUUUUAUCGAAUUUUCGGCGGAUGUGUCCAAA [G13A G40A G44U C67U C68G]
[A] < 1e-05 s⁻¹

[Q] Next record, please: AUAAAAGCGCCAGAACUACAGAAAUGUAGUUGACGAGGAGGAGGUUUAUCGGAUUUUCGGCGGAUGCCUUCAAA [A52G C70U]
[A] 0.00037 s⁻¹

[Q] Next record, please: AUAAAAGCGCCAGAACUACAGAAAUGUAGUUGACGAGGAGGAGGUUUCUCGGAUUUUCGGCGGAUGCCUCCAAA [A48C A52G]
[A] < 1e-05 s⁻¹

[Q] Next record, please: AUAAAAGCGCCAGAACUACAGAAAUGUAGUUGACGAGGAGGAGGUUUAUCGAAUUUUCUGUGGAUGCCUCCAAA [G59U C61U]
[A] < 1e-05 s⁻¹

[Q] Next record, please: AUAAAAGCGCCACAACUACAGAAAUGUAGUUGACGAGGAUGAGGUUUAUCGAAUUUUCCGCGGAUGCCUCCAAA [G13C G40U G59C]
[A] < 1e-05 s⁻¹

[Q] Next record, please: AUAAAAGCGCCAGUACUACAGAAAUGUAGUUGACUAGGAGGAGCUUUAUCGAAUUUUCGGCGGAUGCCUCCAAA [A14U G35U G44C]
[A] < 1e-05 s⁻¹

[Q] Next record, please: AUAAAAGCGCCAGAACUACAGAAAUGUAGUUGACGAGGAGGAGGUUUAUCGAAUUUUCGACGGCUGCCUCCAAA [G60A A64C]
[A] < 1e-05 s⁻¹

[Q] Next record, please: AUAAAAGCGCCAGACCUACAGAAAUGUAGUUGACGAGGAGGAGGUUUAUCGAAUGUUCGGCGGAUGCCUACAAA [A15C U55G C70A]
[A] 5.4e-05 s⁻¹

[Q] Next record, please: AUAAAAGCGCCAGAACUACAGAAAUGUAGUUGACGAGGACUAUGUUUAUCGAAUUUUCGGCGGAUGCCUCCAAA [G40C G41U G43U]
[A] < 1e-05 s⁻¹

[Q] Next record, please: AUAAAAGCGCCAGAACUACAGAAAUGUAGUUGACGACGAGGAGGUUUCUCGAAUUUUCGGCGGAUGCCUCGAAA [G37C A48C C71G]
[A] < 1e-05 s⁻¹

[Q] Next record, please: AUAAAAUCGCCAGAACUACAGAAAUGUAGUUGCCGAGGAGGAGGUUAAUCGAAUUUUCGGCGGAUGCCUCCAAA [G7U A33C U47A]
[A] < 1e-05 s⁻¹

[Q] Next record, please: AUAAAAGCGCCAGAACUACAGAAAUGUAGUUAACGAGGAGGAGGUUUAUCGAAUUGUCGGCGGAUGCCUCCAAA [G32A U56G]
[A] 0.000151 s⁻¹

[Q] Next record, please: AUAAAAGCGCCAGAACUACAGAAAUGUAGUUGACGAGGAGGAGUUUUAUCGAAUUUUCGGAGGAUGCCUCCAAA [G44U C61A]
[A] < 1e-05 s⁻¹

Source: the supplement of paper PMC7125110
